Molecular target: Endothelin receptor type B (Rattus norvegicus)
Sequence (P21451 whole entry): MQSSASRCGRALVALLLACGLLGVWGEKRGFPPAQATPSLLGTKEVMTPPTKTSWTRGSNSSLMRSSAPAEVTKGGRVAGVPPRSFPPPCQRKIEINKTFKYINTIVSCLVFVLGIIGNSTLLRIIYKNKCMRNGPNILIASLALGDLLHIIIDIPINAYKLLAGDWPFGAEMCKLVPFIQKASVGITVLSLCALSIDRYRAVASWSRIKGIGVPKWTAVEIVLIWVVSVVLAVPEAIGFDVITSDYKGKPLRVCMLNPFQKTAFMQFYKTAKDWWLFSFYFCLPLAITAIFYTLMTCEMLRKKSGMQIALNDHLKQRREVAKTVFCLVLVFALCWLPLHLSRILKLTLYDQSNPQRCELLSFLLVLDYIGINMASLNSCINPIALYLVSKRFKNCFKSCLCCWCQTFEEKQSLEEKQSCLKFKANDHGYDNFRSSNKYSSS
Please find below IC50 measurements for Endothelin receptor type B (Rattus norvegicus), combined from several publications.
Threshold 3000 nM: IC50 strictly smaller gives 1, otherwise -1.

As a guide, the following entries are already answered.
O=C(O)c1cc(Cn2nc(-c3ccccc3)c(Cc3cc4c(cc3Cl)OCO4)c2C(=O)O)on1	1
Cc1ccccc1C(CCC(=O)O)Oc1cc(OCc2ccsc2)ccc1-c1ncc[nH]1 (stereo not given)	-1

## Task Find out if reported IC50 for CC[C@H](C)[C@H](NC(=O)[C@H](CC(=O)O)NC(=O)[C@H](Cc1ccccc1)NC(=O)[C@@H](Cc1ccccc1)NC(C)=O)C(=O)N[C@H](C(=O)N[C@@H](Cc1c[nH]c2ccccc12)C(=O)O)[C@@H](C)CC (stereo in doubt; 20) is less than 3000 nM
## Result 1

## Task Find out if reported IC50 for Cc1ccccc1C(CCC(=O)O)Oc1cc(OCc2ccsc2)ccc1C(N)=O (stereo not given) is less than 3000 nM
## Result -1

## Task Find out if reported IC50 for Cc1ccccc1[C@@H](CCC(=O)O)Oc1cc(OCc2ccsc2)ccc1C#N is less than 3000 nM
## Result -1

## Task Find out if reported IC50 for O=C(O)c1c(Cc2cc3c(cc2Cl)OCO3)c(-c2ccccc2)nn1Cc1cccc(Cl)c1 is less than 3000 nM
## Result 1

## Task Find out if reported IC50 for O=C(O)c1c(Cc2cc3c(cc2Cl)OCO3)c(-c2ccccc2)nn1Cc1ccc(Cl)c(Cl)c1 is less than 3000 nM
## Result 1

## Task Find out if reported IC50 for CC[C@H](C)[C@H](NC(=O)[C@H](CC(=O)O)NC(=O)[C@H](CC(C)C)NC(=O)[C@@H](N)Cc1ccccc1)C(=O)N[C@H](C(=O)N[C@@H](Cc1c[nH]c2ccccc12)C(=O)O)[C@@H](C)CC is less than 3000 nM
## Result 1

## Task Find out if reported IC50 for Cc1ccccc1[C@@H](CCC(=O)O)Oc1cc(OCc2ccc3c(c2)OCO3)ccc1C#N is less than 3000 nM
## Result -1

## Task Find out if reported IC50 for CC[C@H](C)[C@H](NC(=O)[C@H](CCCCN)NC(=O)[C@H](CC(C)C)NC(=O)[C@@H](Cc1ccccc1)NC(C)=O)C(=O)N[C@H](C(=O)N[C@@H](Cc1c[nH]c2ccccc12)C(=O)O)[C@@H](C)CC is less than 3000 nM
## Result -1

## Task Find out if reported IC50 for O=C(O)c1c(Cc2cc3c(cc2Cl)OCO3)c(-c2ccsc2)nn1CC1CCCCC1 is less than 3000 nM
## Result 1

## Task Find out if reported IC50 for O=C(O)c1c(Cc2cc3c(cc2Cl)OCO3)c(-c2ccccc2)nn1CC1CCCC(C(=O)O)C1 (stereo not given) is less than 3000 nM
## Result 1

## Task Find out if reported IC50 for Cc1ccccc1[C@@H](CCC(=O)O)Oc1cc(OCc2ccncc2)ccc1C#N is less than 3000 nM
## Result -1

## Task Find out if reported IC50 for O=C(O)c1cc(-c2ccc(OCc3ccccc3)cc2OCc2ccccc2)n[nH]1 is less than 3000 nM
## Result -1

## Task Find out if reported IC50 for Cc1ccccc1C(CCC(=O)O)Oc1cc(OCc2ccsc2)ccc1-c1cc[nH]n1 (stereo not given) is less than 3000 nM
## Result -1
